Each entry below carries its recorded ED50.
System: E. coli 12140
Assay remarks: In vivo mouse protection, E. coli 12140
Reported conditions: Escherichia coli, 12140, po, Table 2; E. coli 12140; p.o.; read-out: ED50 in vivo

Compound | ED50
NS(=O)(=O)CCn1nnnc1SCC1=C(C(=O)O)N2C(=O)C(NC(=O)Cc3cccs3)[C@H]2SC1 (stereo partly drawn) [VIII] | > 50 mg/kg
O=C(Cc1cccs1)NC1C(=O)N2C(C(=O)O)=C(CSc3nnnn3CS(=O)(=O)O)CS[C@H]12 (stereo partly drawn) [V] | > 50 mg/kg
O=C(O)C1=C(CSc2nnnn2CCCCCS(=O)(=O)O)CS[C@@H]2C(NC(=O)[C@H](O)c3ccccc3)C(=O)N12 (stereo partly drawn) [IV] | > 50 mg/kg
